Measured IC50 of individual entries
- study-target: human Nav1.7 (hNav1.7) (Homo sapiens, UniProt Q15858)
- Construct: expressed in transfected cells
- Sequence (Q15858 whole entry): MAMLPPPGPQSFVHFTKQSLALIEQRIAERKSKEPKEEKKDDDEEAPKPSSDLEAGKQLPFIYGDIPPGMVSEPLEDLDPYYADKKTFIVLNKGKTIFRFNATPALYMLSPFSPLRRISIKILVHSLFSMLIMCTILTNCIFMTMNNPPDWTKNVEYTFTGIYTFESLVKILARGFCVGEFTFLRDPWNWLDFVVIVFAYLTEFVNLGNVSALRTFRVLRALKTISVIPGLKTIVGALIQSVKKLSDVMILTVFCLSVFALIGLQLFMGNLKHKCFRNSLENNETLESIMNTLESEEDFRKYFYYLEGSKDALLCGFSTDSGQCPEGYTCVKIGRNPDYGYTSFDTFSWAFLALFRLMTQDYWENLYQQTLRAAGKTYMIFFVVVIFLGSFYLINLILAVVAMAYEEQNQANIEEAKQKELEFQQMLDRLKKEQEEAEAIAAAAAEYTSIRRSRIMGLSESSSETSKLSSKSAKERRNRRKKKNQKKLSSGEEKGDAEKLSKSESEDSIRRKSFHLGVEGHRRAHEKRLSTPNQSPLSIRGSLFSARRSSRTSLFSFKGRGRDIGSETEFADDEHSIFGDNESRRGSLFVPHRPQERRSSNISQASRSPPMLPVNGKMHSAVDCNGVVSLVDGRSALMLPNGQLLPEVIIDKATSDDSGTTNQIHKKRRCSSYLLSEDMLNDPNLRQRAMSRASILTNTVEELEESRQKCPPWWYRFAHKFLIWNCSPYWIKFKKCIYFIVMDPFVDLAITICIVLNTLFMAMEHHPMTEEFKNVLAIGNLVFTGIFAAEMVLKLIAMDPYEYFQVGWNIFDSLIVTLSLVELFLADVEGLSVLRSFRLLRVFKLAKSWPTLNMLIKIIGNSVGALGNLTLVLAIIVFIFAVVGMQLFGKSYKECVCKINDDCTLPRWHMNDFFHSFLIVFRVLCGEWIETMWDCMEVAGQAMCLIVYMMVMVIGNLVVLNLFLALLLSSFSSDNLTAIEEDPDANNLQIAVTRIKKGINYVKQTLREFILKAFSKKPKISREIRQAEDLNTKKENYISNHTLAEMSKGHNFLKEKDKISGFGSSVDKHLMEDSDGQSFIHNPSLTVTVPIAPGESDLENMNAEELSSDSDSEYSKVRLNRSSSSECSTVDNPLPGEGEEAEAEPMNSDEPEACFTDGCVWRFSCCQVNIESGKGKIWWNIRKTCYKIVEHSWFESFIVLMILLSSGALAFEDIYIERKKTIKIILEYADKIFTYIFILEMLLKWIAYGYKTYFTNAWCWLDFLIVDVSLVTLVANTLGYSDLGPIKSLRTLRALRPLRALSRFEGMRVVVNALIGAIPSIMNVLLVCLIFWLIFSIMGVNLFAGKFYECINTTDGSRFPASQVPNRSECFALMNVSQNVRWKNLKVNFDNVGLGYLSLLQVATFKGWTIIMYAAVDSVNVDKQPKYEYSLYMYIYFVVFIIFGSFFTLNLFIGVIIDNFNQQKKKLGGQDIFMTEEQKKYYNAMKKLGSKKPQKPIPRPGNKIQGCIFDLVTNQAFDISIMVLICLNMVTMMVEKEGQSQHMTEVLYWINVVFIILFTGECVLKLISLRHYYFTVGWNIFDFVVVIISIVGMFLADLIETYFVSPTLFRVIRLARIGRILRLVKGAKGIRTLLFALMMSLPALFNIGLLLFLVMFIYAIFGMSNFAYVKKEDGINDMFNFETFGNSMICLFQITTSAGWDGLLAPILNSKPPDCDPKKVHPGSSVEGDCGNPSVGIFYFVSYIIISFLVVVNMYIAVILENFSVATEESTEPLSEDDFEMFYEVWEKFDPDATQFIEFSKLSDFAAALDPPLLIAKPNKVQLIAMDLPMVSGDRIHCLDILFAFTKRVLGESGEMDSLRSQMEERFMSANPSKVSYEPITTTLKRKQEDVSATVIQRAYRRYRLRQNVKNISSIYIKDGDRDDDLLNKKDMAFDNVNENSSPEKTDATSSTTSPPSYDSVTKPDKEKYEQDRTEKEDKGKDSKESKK
- Sequence (Q07699 19-218 partner): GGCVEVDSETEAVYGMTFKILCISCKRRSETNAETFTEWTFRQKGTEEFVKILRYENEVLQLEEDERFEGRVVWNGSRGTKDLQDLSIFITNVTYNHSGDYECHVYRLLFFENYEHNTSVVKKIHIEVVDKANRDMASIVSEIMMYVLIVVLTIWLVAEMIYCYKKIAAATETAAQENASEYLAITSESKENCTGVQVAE
- measurement-description: hNav1.7 slow inactivation block, manual patchclamp
- Type: cell-based
- condition-parameters: HEK 293F cells stably expressing hNav1.7, slow inactivation induced in approximately 50% of channels

// known answers, use as guide
> print(dat)
                               given.smiles        val
1  O=C(Nc1ncns1)c1cc(F)c(Oc2cc(C(F)(F)F)cc(C(F)(F)F)c2)cc1F   ~5590 nM
2  CNC(=O)c1cc(Oc2cc(F)c(S(=O)(=O)Nc3ncns3)cc2F)cc(C(F)(F)F)c1  ~19200 nM
3  O=C(Cc1cc(F)c(Oc2cc(C(F)(F)F)cc(C(F)(F)F)c2)cc1F)Nc1ncns1  > 3200 nM
4  COc1cc(Oc2cc(F)c(S(=O)(=O)Nc3nc(C)ns3)cc2F)cc(C(F)(F)F)c1  > 3200 nM
5  COc1cc(Oc2cc(F)c(S(=O)(=O)Nc3nc(Cc4ccccc4)ns3)cc2F)cc(C(F)(F)F)c1  > 3200 nM

Lab note: measured IC50 of COCc1nsc(NS(=O)(=O)c2cc(F)c(Oc3cc(OC)cc(C(F)(F)F)c3)cc2F)n1 was > 10000 nM

// recorded IC50 for O=C(c1cc(Oc2cc(F)c(S(=O)(=O)Nc3ncns3)cc2F)cc(C(F)(F)F)c1)N1CCCC1 : ~6930 nM

----------
Listed here: items and their measured IC50.
- study-target: human Nav1.7 (hNav1.7) (Homo sapiens)
- Construct: expressed in transfected cells
- measurement-description: hNav1.7 slow inactivation block, automated patchclamp
- Assay type: cell-based
- condition-parameters: HEK 293F cells stably expressing hNav1.7, slow inactivation induced in approximately 50% of channels

Worked examples, 6 molecules total:
> print(dat)
                                   molecule  measure         val
1  O=S(=O)(Nc1ncns1)c1cc(F)c(Oc2cc(F)cc(C(F)(F)F)c2)cc1F [Compound 32]     IC50   ~21100 nM
2  O=S(=O)(Nc1ncns1)c1cc(F)c(Oc2cc(N3CC(O)C3)cc(C(F)(F)F)c2)cc1F [Compound 49]     IC50    ~7680 nM
3  O=S(=O)(Nc1ccncn1)c1cc(F)c(Oc2cc(C(F)(F)F)cc(C(F)(F)F)c2)cc1F [Compound 18]     IC50  > 32000 nM
4  O=S(=O)(Nc1ncns1)c1cc(F)c(Oc2cc(F)cc(F)c2)cc1F [Compound 28]     IC50   ~37900 nM
5  COc1cc(Oc2cc(F)c(S(=O)(=O)Nc3nc(CN4CCOCC4)ns3)cc2F)cc(C(F)(F)F)c1 [Compound 45]     IC50  > 32000 nM
6  O=S(=O)(Nc1cccnn1)c1cc(F)c(Oc2cc(C(F)(F)F)cc(C(F)(F)F)c2)cc1F [Compound 30]     IC50   ~36000 nM

Lab book: IC50 of O=S(=O)(Nc1ncns1)c1cc(F)c(Oc2cc(Br)cc(C(F)(F)F)c2)cc1F [Compound 33] noted as ~10000 nM

Per the record, O=C(NCc1cc(F)c(Oc2ccccc2)cc1F)[C@@H]1CCCN1 [Compound 3] has IC50 of 5780 nM

IC50 recorded for this molecule, N#Cc1cc(Oc2cc(C(F)(F)F)cc(C(F)(F)F)c2)ccc1S(=O)(=O)Nc1nncs1 [Example 43] , is > 32000 nM

Lookup result for O=C(Nc1ncns1)c1cc(F)c(Oc2cc(C(F)(F)F)cc(C(F)(F)F)c2)cc1F [Compound 12] ; measured IC50: > 32000 nM

Entry O=C(NCc1cc(-c2cc(C(F)(F)F)cc(C(F)(F)F)c2)cc(C(F)(F)F)c1)[C@H]1CCCN1 [Compound 55] , IC50 reported as 3610 nM

Short answer for CNC(=O)c1cc(Oc2cc(F)c(S(=O)(=O)Nc3ncns3)cc2F)cc(C(F)(F)F)c1 [Compound 25] : IC50 was ~41800 nM

Form field IC50, entry O=S(=O)(Nc1nncs1)c1cc(F)c(Oc2cc(C(F)(F)F)cc(C(F)(F)F)c2)cc1F [Compound 8] : > 32000 nM

Per the record, O=C(c1cc(Oc2cc(F)c(S(=O)(=O)Nc3ncns3)cc2F)cc(C(F)(F)F)c1)N1CCCC1 [Compound 39] has IC50 of ~21700 nM
